- assay_target: Sodium channel alpha subunits; brain (Types I, II, III) (Homo sapiens, UniProt P35498+Q99250+Q9NY46)
- Sequence (Q99250 whole entry, looked up, other chains not shown): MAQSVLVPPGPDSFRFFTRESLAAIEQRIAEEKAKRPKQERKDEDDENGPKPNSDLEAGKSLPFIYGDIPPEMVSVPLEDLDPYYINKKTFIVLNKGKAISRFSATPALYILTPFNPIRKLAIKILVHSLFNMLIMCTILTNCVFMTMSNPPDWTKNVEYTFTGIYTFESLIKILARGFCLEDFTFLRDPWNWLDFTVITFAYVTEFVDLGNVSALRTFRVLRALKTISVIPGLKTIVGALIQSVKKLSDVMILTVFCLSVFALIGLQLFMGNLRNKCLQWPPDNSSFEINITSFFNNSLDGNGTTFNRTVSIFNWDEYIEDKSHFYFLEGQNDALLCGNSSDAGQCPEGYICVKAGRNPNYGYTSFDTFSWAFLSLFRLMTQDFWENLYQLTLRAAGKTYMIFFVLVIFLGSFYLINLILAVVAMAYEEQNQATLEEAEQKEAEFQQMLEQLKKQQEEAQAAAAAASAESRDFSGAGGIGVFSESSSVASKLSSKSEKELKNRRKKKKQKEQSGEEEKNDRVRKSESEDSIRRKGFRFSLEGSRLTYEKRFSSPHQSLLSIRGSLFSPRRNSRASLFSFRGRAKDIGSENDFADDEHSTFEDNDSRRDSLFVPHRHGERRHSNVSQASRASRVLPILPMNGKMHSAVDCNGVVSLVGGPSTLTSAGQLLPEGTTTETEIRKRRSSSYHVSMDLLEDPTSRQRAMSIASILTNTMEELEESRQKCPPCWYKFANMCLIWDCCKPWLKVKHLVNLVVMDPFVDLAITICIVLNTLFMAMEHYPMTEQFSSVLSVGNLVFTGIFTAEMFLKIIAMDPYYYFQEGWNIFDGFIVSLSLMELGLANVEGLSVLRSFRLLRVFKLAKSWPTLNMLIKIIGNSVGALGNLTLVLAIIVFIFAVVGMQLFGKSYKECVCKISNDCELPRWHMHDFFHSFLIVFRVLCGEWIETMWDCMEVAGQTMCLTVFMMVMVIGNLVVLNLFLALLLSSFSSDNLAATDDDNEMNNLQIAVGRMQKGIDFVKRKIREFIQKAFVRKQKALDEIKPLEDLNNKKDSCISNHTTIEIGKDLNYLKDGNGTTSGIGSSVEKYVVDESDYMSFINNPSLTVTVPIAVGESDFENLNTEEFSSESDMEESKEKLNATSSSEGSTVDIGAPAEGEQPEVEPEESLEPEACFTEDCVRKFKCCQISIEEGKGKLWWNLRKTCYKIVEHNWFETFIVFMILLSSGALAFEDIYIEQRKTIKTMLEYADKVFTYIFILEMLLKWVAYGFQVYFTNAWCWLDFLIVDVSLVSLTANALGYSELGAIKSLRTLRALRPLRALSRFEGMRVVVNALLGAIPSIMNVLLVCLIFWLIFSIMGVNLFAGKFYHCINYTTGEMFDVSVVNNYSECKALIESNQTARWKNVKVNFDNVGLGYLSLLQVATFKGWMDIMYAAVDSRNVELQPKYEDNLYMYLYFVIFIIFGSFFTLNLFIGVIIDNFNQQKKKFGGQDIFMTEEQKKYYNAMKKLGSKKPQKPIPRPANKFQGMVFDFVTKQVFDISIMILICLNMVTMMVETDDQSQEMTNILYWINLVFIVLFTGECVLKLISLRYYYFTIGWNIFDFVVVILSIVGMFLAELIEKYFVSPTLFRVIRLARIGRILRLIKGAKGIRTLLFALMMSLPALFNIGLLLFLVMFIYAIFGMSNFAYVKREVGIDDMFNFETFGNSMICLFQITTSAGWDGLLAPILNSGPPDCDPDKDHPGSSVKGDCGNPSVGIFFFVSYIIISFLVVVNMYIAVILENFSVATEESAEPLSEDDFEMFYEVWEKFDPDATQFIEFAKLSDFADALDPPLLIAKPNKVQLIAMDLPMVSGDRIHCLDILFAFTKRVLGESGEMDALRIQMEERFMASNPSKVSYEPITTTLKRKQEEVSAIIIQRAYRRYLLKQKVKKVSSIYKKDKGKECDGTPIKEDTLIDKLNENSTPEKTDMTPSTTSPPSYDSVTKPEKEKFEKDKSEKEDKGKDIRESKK
- Sequence (Q9NY46 whole entry, looked up, other chains not shown): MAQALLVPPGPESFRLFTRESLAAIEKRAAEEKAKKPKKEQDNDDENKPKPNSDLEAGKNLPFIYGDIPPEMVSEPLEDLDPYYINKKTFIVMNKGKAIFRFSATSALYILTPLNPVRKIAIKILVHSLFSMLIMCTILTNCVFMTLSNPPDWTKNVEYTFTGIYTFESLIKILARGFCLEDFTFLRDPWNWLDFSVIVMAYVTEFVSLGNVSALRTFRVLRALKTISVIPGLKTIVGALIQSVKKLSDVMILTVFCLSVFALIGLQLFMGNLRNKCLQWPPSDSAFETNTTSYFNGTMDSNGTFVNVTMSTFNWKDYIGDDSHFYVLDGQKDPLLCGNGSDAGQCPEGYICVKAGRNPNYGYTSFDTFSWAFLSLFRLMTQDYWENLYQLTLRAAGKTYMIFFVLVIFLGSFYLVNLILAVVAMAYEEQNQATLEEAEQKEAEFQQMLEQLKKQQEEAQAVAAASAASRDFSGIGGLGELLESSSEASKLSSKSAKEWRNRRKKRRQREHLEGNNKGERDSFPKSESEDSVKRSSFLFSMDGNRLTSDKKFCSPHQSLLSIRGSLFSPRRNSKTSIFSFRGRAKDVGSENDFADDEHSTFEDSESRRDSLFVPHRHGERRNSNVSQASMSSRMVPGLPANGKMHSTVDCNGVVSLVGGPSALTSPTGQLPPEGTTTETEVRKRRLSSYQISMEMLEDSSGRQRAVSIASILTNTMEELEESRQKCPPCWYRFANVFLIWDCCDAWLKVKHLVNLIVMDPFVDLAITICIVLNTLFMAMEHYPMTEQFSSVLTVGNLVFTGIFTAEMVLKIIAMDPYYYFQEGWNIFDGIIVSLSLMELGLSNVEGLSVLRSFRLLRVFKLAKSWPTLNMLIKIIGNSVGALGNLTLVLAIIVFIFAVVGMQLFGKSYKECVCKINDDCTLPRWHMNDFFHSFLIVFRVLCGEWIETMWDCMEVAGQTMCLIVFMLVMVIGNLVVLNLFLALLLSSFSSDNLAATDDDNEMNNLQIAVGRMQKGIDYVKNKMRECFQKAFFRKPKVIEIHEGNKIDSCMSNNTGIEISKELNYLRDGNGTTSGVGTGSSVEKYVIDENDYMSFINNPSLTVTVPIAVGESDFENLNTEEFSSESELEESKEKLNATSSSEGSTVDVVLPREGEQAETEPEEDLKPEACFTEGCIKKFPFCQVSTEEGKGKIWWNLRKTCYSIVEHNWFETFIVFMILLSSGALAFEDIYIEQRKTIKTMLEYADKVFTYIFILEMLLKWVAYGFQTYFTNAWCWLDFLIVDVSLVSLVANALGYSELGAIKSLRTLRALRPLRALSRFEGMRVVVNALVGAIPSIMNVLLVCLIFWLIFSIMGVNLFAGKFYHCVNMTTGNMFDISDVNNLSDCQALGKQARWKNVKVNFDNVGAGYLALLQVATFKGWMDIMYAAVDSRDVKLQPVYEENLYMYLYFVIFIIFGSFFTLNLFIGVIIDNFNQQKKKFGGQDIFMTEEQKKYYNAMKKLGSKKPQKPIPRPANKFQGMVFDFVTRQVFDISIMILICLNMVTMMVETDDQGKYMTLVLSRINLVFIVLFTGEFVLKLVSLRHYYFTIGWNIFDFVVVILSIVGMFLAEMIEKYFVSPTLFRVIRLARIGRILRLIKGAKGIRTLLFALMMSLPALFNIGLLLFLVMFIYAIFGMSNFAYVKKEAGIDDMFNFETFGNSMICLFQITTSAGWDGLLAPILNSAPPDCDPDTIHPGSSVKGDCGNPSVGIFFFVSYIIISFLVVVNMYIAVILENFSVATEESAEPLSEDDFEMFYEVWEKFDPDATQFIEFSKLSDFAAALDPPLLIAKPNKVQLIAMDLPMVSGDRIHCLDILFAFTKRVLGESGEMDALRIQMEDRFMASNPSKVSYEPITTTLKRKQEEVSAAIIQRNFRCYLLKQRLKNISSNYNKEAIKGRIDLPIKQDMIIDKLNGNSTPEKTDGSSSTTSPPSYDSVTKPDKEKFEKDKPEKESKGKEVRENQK
- condition_info: Cavia porcellus; Cerebral cortex; at 10 µM
Task for the reader: assign each of the following compounds its reported inhibition.
Answer format: number, then unit.

Lookup: Look up inhibition of CCCOc1cc(N)ccc1C(=O)OCCN(CC)CC [PROPOXYCAINE] and report it.
Found: 30%

Lookup: Look up inhibition of CC(Cc1ccccc1)NCCC(c1ccccc1)c1ccccc1 (centres undefined) [PRENYLAMINE] and report it.
Found: 98.8%

Lookup: Look up inhibition of CCN(CC)CCNC(=O)c1ccc(N)cc1 and report it.
Found: 7.8%

Lookup: Look up inhibition of CCCCN(CCCC)CCCOC(=O)c1ccc(N)cc1 [BUTACAINE] and report it.
Found: 75.3%

Lookup: Look up inhibition of C=C(c1ccc(Oc2cccc3ccccc23)cc1)C1COC2(CCCCC2)OO1.Cl (centres undefined) and report it.
Found: 68.3%

Lookup: Look up inhibition of Cn1c(=O)c2nc(-c3ccc(S(=O)(=O)O)cc3)[nH]c2n(C)c1=O and report it.
Found: 1.6%

Lookup: Look up inhibition of CN(C)CCCN1c2ccccc2CCc2ccc(Cl)cc21 [CLOMIPRAMINE] and report it.
Found: 76.6%

Lookup: Look up inhibition of COc1ccc(Cc2nccc3cc(OC)c(OC)cc23)cc1OC and report it.
Found: 11%

Lookup: Look up inhibition of C=C[C@H]1CN2CC[C@H]1C[C@@H]2[C@@H](O)c1ccnc2ccc(OC)cc12 [QUINIDINE] and report it.
Found: 74.1%

Lookup: Look up inhibition of COc1ccc(CCN(C)CCCC(C#N)(c2ccc(OC)c(OC)c2)C(C)C)cc1OC (centres undefined) and report it.
Found: 74.4%

Lookup: Look up inhibition of OC(c1ccccc1)(c1ccccc1)C1CCNCC1 [AZACYCLONOL] and report it.
Found: 43.2%

Lookup: Look up inhibition of CNCCC=C1c2ccccc2CCc2ccccc21 [NORTRIPTYLINE] and report it.
Found: 69.4%

Lookup: Look up inhibition of C[C@H](Cc1ccccc1)Nc1ncnc2c1ncn2[C@@H]1O[C@H](CO)[C@@H](O)[C@H]1O and report it.
Found: 2.2%

Lookup: Look up inhibition of OCCN1CCN(CCCN2c3ccccc3Sc3ccc(C(F)(F)F)cc32)CC1 [FLUPHENAZINE] and report it.
Found: 72.8%

Lookup: Look up inhibition of COc1cc2c(cc1OC)-c1c/c(=N\c3c(C)cc(C)cc3C)n(C)c(=O)n1CC2 and report it.
Found: 17.4%

Lookup: Look up inhibition of CCOC(=O)c1ccc(N)cc1 [BENZOCAINE] and report it.
Found: 5.1%

Lookup: Look up inhibition of CCCCC1=C(N(C)C)c2cc3c(cc2C1)OCO3 and report it.
Found: 45%

Lookup: Look up inhibition of Cl.NCCCCCCNS(=O)(=O)c1cccc2ccccc12 and report it.
Found: 33.3%

Lookup: Look up inhibition of CCN(CC)CCCN1C(=O)CC2(CCCc3ccccc32)C1=O (racemic; form 1) and report it.
Found: 25.7%

Lookup: Look up inhibition of CN(C)CCC(c1ccccc1)c1ccccn1 (centres undefined) [PHENIRAMINE] and report it.
Found: 24.9%

Lookup: Look up inhibition of COc1ccc(OC)c(C(O)C(C)NC(C)(C)C)c1 (centres undefined) [BUTOXAMINE] and report it.
Found: 26.8%

Lookup: Look up inhibition of CCOC(=O)c1cnc2c(cnn2CC)c1NN=C(C)C and report it.
Found: 8.3%

Lookup: Look up inhibition of NC(=O)N1c2ccccc2C=Cc2ccccc21 and report it.
Found: 1.6%

Lookup: Look up inhibition of COc1ccc(CCN(C)CCCC(C#N)(c2cc(OC)c(OC)c(OC)c2)C(C)C)cc1OC (centres undefined) [GALLOPAMIL] and report it.
Found: 67.1%

Lookup: Look up inhibition of CC(C)[C@@]1(O)[C@@H](OC(=O)c2cc[nH]c2)[C@@]2(O)[C@]3(C)C[C@@]4(O)O[C@@]5([C@H](O)[C@@H](C)CC[C@]35O)[C@@]2(O)[C@@]41C and report it.
Found: 0%

Lookup: Look up inhibition of O=c1n(CCCN2CCN(c3cccc(Cl)c3)CC2)nc2ccccn12 and report it.
Found: 26.2%

Lookup: Look up inhibition of C=C[C@H]1CN2CC[C@H]1C[C@H]2[C@H](O)c1ccnc2ccc(OC)cc12 [QUININE] and report it.
Found: 69.3%

Lookup: Look up inhibition of CN1CCN(CCCN2c3ccccc3Sc3ccc(C(F)(F)F)cc32)CC1 [TRIFLUOPERAZINE] and report it.
Found: 79.8%

Lookup: Look up inhibition of Cn1c(=O)c2nc(-c3ccccc3)[nH]c2n(C)c1=O and report it.
Found: 10.9%

Lookup: Look up inhibition of CN(C(=O)CN(CCO)CC(=O)N(C)C(C)(C)Cc1ccccc1)C(C)(C)Cc1ccccc1 [OXETHAZAINE] and report it.
Found: 83.9%

Lookup: Look up inhibition of CNCCCN1c2ccccc2CCc2ccccc21 [DESIPRAMINE] and report it.
Found: 80.3%

Lookup: Look up inhibition of O=C(CCCN1CCC2(CC1)C(=O)NCN2c1ccccc1)c1ccc(F)cc1 [SPIPERONE] and report it.
Found: 98.7%

Lookup: Look up inhibition of COC(=O)[C@H]1[C@H]2C[C@H]3c4[nH]c5ccccc5c4CCN3C[C@@H]2CC[C@@H]1O and report it.
Found: 33.7%

Lookup: Look up inhibition of CCCCOc1cc(C(=O)OCCN(CC)CC)ccc1N [BENOXINATE] and report it.
Found: 73.4%
